System: normal CDF1 male mice
Assay: Maximum tolerated dose (LD10) in normal, tumor-free CDF1 male mice
Type: in vivo
Settings: four injections ip, qd 1-4; deaths during 21 days
Starred links: 1 amine or outer side, 2 acyl side, 3 side chain; linkers in the order of their positions; H or OH if unused. Positions of bridges follow the written chain, without caps; N, C: chain ends. Non-standard residues stand in square brackets, D forms with d. Residues, ends and D or L forms follow the SMILES beside them. Chains are numbered I, II in the order given. Actinocin(9to1) = Cc1c2oc3c(C)ccc(C(=O)[*:1])c3nc-2c(C(=O)[*:2])c(N)c1=O; NMeV = CN[C@H](C(=O)O)C(C)C; Sar = CNCC(=O)O
OBSERVATION TYPE: MTD (maximum tolerated dose, lethal for 10% of normal mice; = LD10) (milligrams/kilogram)
Write the number in milligrams/kilogram without appending the unit.

[[record]]
compound = "Cc1c2oc3c(C)c(OCC(O)CO)cc(C(=O)N[C@@H]4C(=O)N[C@H](C(C)C)C(=O)N5CCC[C@H]5C(=O)N(C)CC(=O)N(C)[C@@H](C(C)C)C(=O)O[C@@H]4C)c3nc-2c(C(=O)N[C@@H]2C(=O)N[C@H](C(C)C)C(=O)N3CCC[C@H]3C(=O)N(C)CC(=O)N(C)[C@@H](C(C)C)C(=O)O[C@@H]2C)c(N)c1=O (stereo partly shown) [Compound 4b, 7-(2,3-Dihydroxypropoxy) actinomycin D]"
tested_on = "normal CDF1 male mice"
unit_name = "milligrams/kilogram"
observed_result = 1.4

[[record]]
compound = "Cc1c2oc3c(C)c(O)cc(C(=O)N[C@@H]4C(=O)N[C@H](C(C)C)C(=O)N5CCC[C@H]5C(=O)N(C)CC(=O)N(C)[C@@H](C(C)C)C(=O)O[C@@H]4C)c3nc-2c(C(=O)N[C@@H]2C(=O)N[C@H](C(C)C)C(=O)N3CCC[C@H]3C(=O)N(C)CC(=O)N(C)[C@@H](C(C)C)C(=O)O[C@@H]2C)c(N)c1=O [Compound 2b, 7-hydroxyactinomycin D, reference compound]"
tested_on = "normal CDF1 male mice"
unit_name = "milligrams/kilogram"
observed_result = 2.0

[[record]]
compound = "Cc1c2oc3c(C)c(OCC4CO4)cc(C(=O)N[C@@H]4C(=O)N[C@H](C(C)C)C(=O)N5CCC[C@H]5C(=O)N(C)CC(=O)N(C)[C@@H](C(C)C)C(=O)O[C@@H]4C)c3nc-2c(C(=O)N[C@@H]2C(=O)N[C@H](C(C)C)C(=O)N3CCC[C@H]3C(=O)N(C)CC(=O)N(C)[C@@H](C(C)C)C(=O)O[C@@H]2C)c(N)c1=O (stereo partly shown)"
tested_on = "normal CDF1 male mice"
unit_name = "milligrams/kilogram"
observed_result = 1.6


Moving on to the next compound.
**Q:** Quick check: MTD (maximum tolerated dose, lethal for 10% of normal mice; = LD10) of Cc1c2oc3c(C)ccc(C(=O)N[C@@H]4C(=O)N[C@H](C(C)C)C(=O)N5CCC[C@H]5C(=O)N(C)CC(=O)N(C)[C@@H](C(C)C)C(=O)O[C@@H]4C)c3nc-2c(C(=O)N[C@@H]2C(=O)N[C@H](C(C)C)C(=O)N3CCC[C@H]3C(=O)N(C)CC(=O)N(C)[C@@H](C(C)C)C(=O)O[C@@H]2C)c(N)c1=O [Compound 1b, Actinomycin D, reference compound] (I: T[dV]P[Sar][NMeV] / II: T[dV]P[Sar][NMeV]; ester I:1-I:C, II:1-II:C; linker I:N-II:N via Actinocin(9to1)) ?
**A:** 0.15
